- System: K562
- ASSAY_NOTES: NCI tumour cell line growth inhibition, 48 h
Activity calls are given as the source filed them. Cut-off read from the data, not from the text of the source: active = GI50 up to about 1.1 µM and inactive = higher.
Thanks in advance; please answer with one of these: Y = active, N = inactive

For orientation, consider the following solved cases.
# COMPOUND, ASSIGNED_LABEL
records = [
    ("CC(=O)OC1=CC(n2cc(F)c(=O)[nH]c2=O)OC(C)C1=O (centres undefined)", "N"),
    ("N#CCC(=O)NC1C2CC3CC(C2)CC1C3 (centres undefined)", "N"),
    ("Oc1c(Br)cc(/C=C/c2ccnc(/C=C/c3cc(Br)c(O)c(Br)c3)c2)cc1Br", "N"),
    ("C=CCNC(=O)N(CCC)CCCCC(NC(C)=O)C(=O)NCc1ccccc1 (centres undefined)", "N"),
    ("O=C1/C(=C/c2ccc(Br)s2)NC(=S)N1c1ccccc1", "N"),
    ("O=C(c1ccc(Cl)cc1)c1ccc(OCC(=O)N2CCN(c3ccccc3)CC2)cc1", "N"),
]

*Q* Short answer needed: outcome of this test for O=C1CC(=O)N(CCc2ccccc2)S(=O)(=O)N1CCc1ccccc1 ?
*A* N

*Q* Short answer needed: outcome of this test for CCOC(=O)c1nc2ccccc2nc1Nc1ccc(OC)cc1 ?
*A* N

*Q* Short answer needed: outcome of this test for CCC(=O)N/S(=N/S(=O)(=O)c1ccccc1)C(Cl)(Cl)Cl (centres undefined) ?
*A* N

*Q* Short answer needed: outcome of this test for CNC(=O)OCc1nc(N=[N+]=[N-])n(C)c1COC(=O)NC ?
*A* N

*Q* Short answer needed: outcome of this test for CC(=O)Nc1[nH]c(=O)[nH]c(=O)c1N(C(C)=O)C(C)=O ?
*A* N

*Q* Short answer needed: outcome of this test for O=C(O)CCC(O)=C1S(=O)(=O)OCCOS1(=O)=O ?
*A* N

*Q* Short answer needed: outcome of this test for CCn1c(=O)nc2n(-c3ccccc3)c3ccccc3nc-2c1=O ?
*A* N

*Q* Short answer needed: outcome of this test for COc1ccc2nc3n(c2c1)C(=O)c1ccccc1-3 ?
*A* N

*Q* Short answer needed: outcome of this test for Cc1ccc(/C(C#N)=C/c2cccc([N+](=O)[O-])c2)cc1 ?
*A* N

* * *

- Test system: SK-OV-3
- ASSAY_NOTES: NCI tumour cell line growth inhibition, 48 h
Calls of active or inactive are those of the source. Cut-off read from the data, not from the text of the source: active = GI50 up to about 1.1 µM and inactive = higher.
Thanks in advance; please answer with one of these: t (active), f (inactive)

*Q* Short answer needed: outcome of this test for O=[N+]([O-])c1ccc(-n2nc3ccc4c(no[n+]4[O-])c3n2)cc1 ?
*A* f

*Q* Short answer needed: outcome of this test for C(=N/Nc1ccccn1)/c1cccnc1 ?
*A* f

*Q* Short answer needed: outcome of this test for COc1cc(OC)c(OC)cc1/C=C/c1nc2ccccc2s1 ?
*A* f

*Q* Short answer needed: outcome of this test for O=c1[nH]c(=O)n(COCCO)c2ccc(Br)cc12 ?
*A* f

* * *

- Test system: SN12C
- ASSAY_NOTES: NCI tumour cell line growth inhibition, 48 h
Calls of active or inactive are those of the source. No stated cut-off is given here; in the data, active = GI50 up to about 1.1 µM and inactive = higher.
REPORTED_METRIC: GI50

Here are 5 compounds together with their reported answers.
# COMPOUND, REPORTED_METRIC, RESULT
data = [
    ("CCCCCCCN1C(=O)C(O)(c2ccc(C3(O)C(=O)N(CCCCCCC)c4ccccc43)s2)c2ccccc21 (configuration not stated)", "GI50", "1.9 µM (inactive)"),
    ("Cc1nnc(Nc2ccc(Cl)cc2)o1", "GI50", "> 10 µM (inactive)"),
    ("CC(=C(C(=O)O)C(=O)O)c1cc(-c2cccs2)cc(-c2ccc(Cl)cc2)c1O", "GI50", "15.9 µM (inactive)"),
    ("C(=N\\OCCc1ccccc1)/c1cccnc1", "GI50", "> 100 µM (inactive)"),
    ("COc1cc(CCC(=O)NS(=O)(=O)c2ccccc2)cc(OC)c1OC", "GI50", "> 100 µM (inactive)"),
]

*Q* Please give measured GI50 of the following entry: O=C(/C=C1\Nc2ccccc2N\C1=C\C(=O)c1ccc(Cl)cc1)c1ccccc1
*A* 47.2 µM (inactive)

*Q* Please give measured GI50 of the following entry: CC(=O)OC1=CC(n2cc(F)c(=O)[nH]c2=O)OC(C)C1=O (configuration not stated)
*A* 67.8 µM (inactive)

*Q* Please give measured GI50 of the following entry: Cc1ccc(C)c(N2C(=O)C(=O)C(c3nc4ccccc4o3)/C(=N/N)C2=O)c1 (configuration not stated)
*A* > 100 µM (inactive)

* * *

- Tested on: SK-MEL-5
- ASSAY_NOTES: NCI tumour cell line growth inhibition, 48 h
Activity calls are given as the source filed them. Cut-off read from the data, not from the text of the source: active = GI50 up to about 1.1 µM and inactive = higher.
Thanks in advance; please answer with one of these: t (active), f (inactive)

# COMPOUND, ASSAY_TARGET, ASSIGNED_LABEL
data = [
    ("Oc1c(Br)cc(/C=C/c2ccnc(/C=C/c3cc(Br)c(O)c(Br)c3)c2)cc1Br", "SK-MEL-5", "f"),
    ("O=C1CCCCC/C1=C\\c1cccc(F)c1", "SK-MEL-5", "f"),
    ("CCC(=O)N/S(=N/S(=O)(=O)c1ccccc1)C(Cl)(Cl)Cl (centres undefined)", "SK-MEL-5", "f"),
]

*Q* Short answer needed: outcome of this test for COC(=O)C1=C(C(=O)OC)N(C(C)C)[C@H]2C(C(=O)OC)=C(C(=O)OC)N(C(C)C)[C@@H]12 ?
*A* f

*Q* Short answer needed: outcome of this test for CC1NOC(=O)C1/N=N/c1cccc(Cl)c1 (centres undefined) ?
*A* f

*Q* Short answer needed: outcome of this test for NC(=O)c1csc(C2OC(COP(=O)(O)CP(=O)(O)OCC3OC(n4cnc5c(N)ncnc54)C(O)C3O)C(O)C2O)n1 (centres undefined) ?
*A* f

*Q* Short answer needed: outcome of this test for O=c1c2nc3ccccc3c(=O)n2ncn1-c1ccccc1Cl ?
*A* f

*Q* Short answer needed: outcome of this test for COc1cc([C@@H]2c3cc4c(cc3[C@@H](Nc3ccc(Cl)cc3C(=O)c3ccccc3)[C@H]3COC(=O)[C@H]23)OCO4)cc(OC)c1OC ?
*A* t

*Q* Short answer needed: outcome of this test for CCn1c(-c2cc(OC)cc(OC)c2)nc2c1C(=O)c1ccccc1C2=O ?
*A* f

* * *

- Tested on: SR
- ASSAY_NOTES: NCI tumour cell line growth inhibition, 48 h
The source made the active and inactive calls. Cut-off read from the data, not from the text of the source: active = GI50 up to about 1.1 µM and inactive = higher.
REPORTED_METRIC: GI50

# MOLECULE, ASSAY_TARGET, RESULT
records = [
    ("O=c1n(N=[S+]([O-])(c2ccccc2)c2ccccc2)c(=O)n2n1C1C=CC2CC1", "SR", "> 100 µM (inactive)"),
    ("O=C1CC(CC(OCc2ccccc2)C(COCc2ccccc2)OCc2ccccc2)CC(=O)N1 (stereo unspecified)", "SR", "34.3 µM (inactive)"),
    ("CCSC(=O)/C=C1\\CN(C(=O)OC(C)(C)C)C1C(=O)OC(C)(C)C (stereo unspecified)", "SR", "0.684 µM (active)"),
    ("N/C(=N\\O)N/N=C/c1ccc2c(c1)OCO2", "SR", "7.87 µM (inactive)"),
    ("Cc1ccc(NC(=S)NNC(=O)c2cc(-c3ccccc3)nc3ccccc23)cc1C", "SR", "14.6 µM (inactive)"),
]

*Q* Please give measured GI50 of the following entry: COC(=O)C(CCCC1(c2ccccc2)OCCO1)C(C)=O (stereo unspecified)
*A* 85.1 µM (inactive)

*Q* Please give measured GI50 of the following entry: O=C(Cn1c(-c2ccccc2)cc2ccccc21)N1CCCC1
*A* > 100 µM (inactive)

* * *

- System: M14
- ASSAY_NOTES: NCI tumour cell line growth inhibition, 48 h
Calls of active or inactive are those of the source. No stated cut-off is given here; in the data, active = GI50 up to about 1.1 µM and inactive = higher.
REPORTED_METRIC: GI50

Here are 5 compounds together with their reported answers.
# COMPOUND, GI50
data = [
    ("O=[N+]([O-])c1ccc(C2=NOC(c3ccc(Cl)cc3)N2C23CC4CC(CC(C4)C2)C3)cc1 (stereo not given)", "> 100 µM (inactive)"),
    ("CCN(CC)C(=O)c1cc(OC(C)C)ccc1-c1c(C)cc(OC(C)C)c(OC)c1OC", "79.4 µM (inactive)"),
    ("c1ccc(C2CC(NC3CCCCC3)=Nc3ccccc3N2)cc1 (stereo not given)", "27.4 µM (inactive)"),
    ("CN(C)c1ccc(/C=C(\\C#N)c2nc(-c3cc4ccccc4oc3=O)cs2)cc1", "15.7 µM (inactive)"),
    ("CC(C)(C)C(=O)Cc1cc2c(cc1C(=O)O)S(=O)(=O)NC(C(C)(C)C)=C2", "> 100 µM (inactive)"),
]

*Q* Please give measured GI50 of the following entry: CC(Oc1cc2oc(=O)cc(-c3ccccc3)c2cc1Cl)C(=O)O (stereo not given)
*A* > 100 µM (inactive)

*Q* Please give measured GI50 of the following entry: N#CCC(=O)NC1C2CC3CC(C2)CC1C3 (stereo not given)
*A* 19.9 µM (inactive)

*Q* Please give measured GI50 of the following entry: c1ccc2c(c1)-c1nc3ccccc3cc1C2N1CCOCC1 (stereo not given)
*A* > 100 µM (inactive)

*Q* Please give measured GI50 of the following entry: NC(=O)Cc1nc2c(O)ncnc2n1C1OC(CO)C(O)C1O (stereo not given)
*A* > 100 µM (inactive)

*Q* Please give measured GI50 of the following entry: CCCCCN(CCCCC)C(=O)[C@@H](CCC(=O)O)NC(=O)c1cc2ccccc2[nH]1
*A* 23.2 µM (inactive)

Taken from ChEMBL document CHEMBL1201862.
